Protein target, amino acids: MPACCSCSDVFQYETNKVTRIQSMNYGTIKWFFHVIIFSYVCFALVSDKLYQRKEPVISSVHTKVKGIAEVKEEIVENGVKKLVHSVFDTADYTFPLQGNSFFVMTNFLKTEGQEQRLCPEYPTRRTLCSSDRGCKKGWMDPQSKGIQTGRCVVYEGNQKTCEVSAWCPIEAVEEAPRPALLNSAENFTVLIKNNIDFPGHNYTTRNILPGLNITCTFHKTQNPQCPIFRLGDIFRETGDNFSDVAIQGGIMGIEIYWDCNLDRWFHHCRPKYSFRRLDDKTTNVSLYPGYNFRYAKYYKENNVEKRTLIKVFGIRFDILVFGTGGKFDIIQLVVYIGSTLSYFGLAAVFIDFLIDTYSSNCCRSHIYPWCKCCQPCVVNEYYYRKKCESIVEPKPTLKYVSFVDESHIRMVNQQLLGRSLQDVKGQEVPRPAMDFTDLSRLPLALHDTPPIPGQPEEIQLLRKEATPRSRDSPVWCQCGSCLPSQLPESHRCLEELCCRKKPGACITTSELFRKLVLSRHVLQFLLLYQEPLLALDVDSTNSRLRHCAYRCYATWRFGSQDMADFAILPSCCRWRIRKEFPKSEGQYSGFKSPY
quantity.kind: log10 IC50 (log10 of the value in nM)

{"compound.structure": "Cc1nn(CCN2CCCCC2)c(C)c1CC(=O)NCc1ccc(F)cc1Cl", "reported.value": 1.70}
{"compound.structure": "CN1C(=O)N(c2cn(C)cn2)C[C@H]1C(=O)NCc1ccc(Cl)cc1Cl", "reported.value": 0.90}
{"compound.structure": "Cc1cccc(C)c1N1CCN(Cc2ccc(F)c(F)c2F)C(=O)C1=O", "reported.value": 1.60}
{"compound.structure": "O=C(c1ccc(Cl)cc1Cl)N1CCn2c(nnc2-c2cnccn2)C1", "reported.value": 0.50}
{"compound.structure": "CN1C(=O)CC[C@H]1C(=O)NCc1cccc(Cl)c1F", "reported.value": 2.10}
{"compound.structure": "Cc1cc(F)cc(C)c1N1CCN(Cc2cccc(Cl)c2Cl)C(=O)C1=O", "reported.value": 1.70}
{"compound.structure": "Cc1nn(-c2ccccc2)c(C)c1CC(=O)NCc1cccc(Cl)c1C", "reported.value": 1.50}
{"compound.structure": "Cc1cc(Cl)cc(Cl)c1CNC(=O)[C@@H]1CCC(=O)N1C", "reported.value": 0.10}
{"compound.structure": "CCN1[C@H](C(=O)NCc2ccc(Cl)cc2Cl)CCCS1(=O)=O", "reported.value": 2.30}
{"compound.structure": "O=C1C(=O)N(c2cccc(Cl)c2Cl)CCN1Cc1cccc(Cl)c1", "reported.value": 2.70}
{"compound.structure": "O=C(c1ccccc1Cl)N1CCn2c(nnc2-c2cnccn2)C1", "reported.value": 1.30}

###

experimental.target: P2X purinoceptor 7 (Homo sapiens)
// values below are reported IC50
quantity.kind: IC50 (nM)

{"compound": "Cc1ccccc1N1CCN(Cc2cccc(C(F)(F)F)c2Cl)C(=O)C1=O", "reported.value": 39.8}
{"compound": "O=C(c1ccc(F)c(C(F)(F)F)c1)N1CCn2c(nnc2-c2cnccn2)C1", "reported.value": 12.6}
{"compound": "O=C1CN(C(=O)c2cccc(C(F)(F)F)c2Cl)CCN1Cc1ccncc1", "reported.value": 316}
{"compound": "Cc1cc(-n2nc(C)c(CC(=O)NCc3ccc(F)cc3Cl)c2C)ccn1", "reported.value": 316}
{"compound": "CN1C(=O)N(c2cccnc2Cl)C[C@H]1C(=O)NCc1ccc(Cl)cc1Cl", "reported.value": 5.01}
{"compound": "CN1C[C@@H](C(=O)NCc2ccc(F)c(C(F)(F)F)c2Cl)N(C)C1=O", "reported.value": 1}
{"compound": "CCN1C(=O)NC[C@H]1C(=O)NCc1cccc(C(F)(F)F)c1Cl", "reported.value": 3.98}
{"compound": "CN1C(=O)N(CC2CCC2)CC1C(=O)NCc1ccc(Cl)cc1Cl (stereo unspecified)", "reported.value": 5.01}
{"compound": "Cc1nn(-c2ccccc2)c(C)c1CC(=O)NCc1cccc(F)c1F", "reported.value": 316}
{"compound": "Cc1cc(F)ccc1C(=O)N1CCn2c(nnc2-c2cnccn2)C1", "reported.value": 15.8}
{"compound": "CN1C(=O)CC[C@@H]1C(=O)NCc1ccc(Cl)cc1Cl", "reported.value": 50.1}
